Molecular target: DiHydroFolate Reductase (DHFR) (Rattus norvegicus, UniProt Q920D2)
Construct: from tissue; host or cells: rat liver homogenate supernatant (47,500 x g)
Sequence (Q920D2 1-187): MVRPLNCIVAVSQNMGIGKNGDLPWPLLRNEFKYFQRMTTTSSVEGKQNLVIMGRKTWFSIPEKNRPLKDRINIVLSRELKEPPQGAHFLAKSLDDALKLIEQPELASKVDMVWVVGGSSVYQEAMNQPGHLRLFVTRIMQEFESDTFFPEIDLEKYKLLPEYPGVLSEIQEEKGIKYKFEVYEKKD
Experiment: inhibition of binding of [3H]methotrexate to rat liver homogenate supernatant
Conditions: assay concentration 10 μM
READOUT: [3H]methotrexate binding Inhibition (% @ assay conc'n) (%)
// return numeric value only (unit: %, not printed)

Example compounds with recorded [3H]methotrexate binding Inhibition (% @ assay conc'n):
COMPOUND | NUMERIC_RESULT
N=c1nc(N)c(-c2cccc(Cl)c2Cl)nn1CCO | −1
CCn1nc(-c2cccc(Cl)c2Cl)c(N)nc1=N | 0
Nc1nc(N)c(-c2cc(Cl)cc(Cl)c2Cl)c(CF)n1 [BW202W92, reference compound] | −1

In the following, a different compound is considered.
# [3H]methotrexate binding Inhibition (% @ assay conc'n) (compound: "N=c1nc(N)c(-c2cccc(Cl)c2Cl)nn1Cc1ccc(Cl)cc1" ) is −4
